- assayTarget: Histone deacetylase 1 (Homo sapiens, UniProt Q13547)
- Sequence (Q13547 whole entry): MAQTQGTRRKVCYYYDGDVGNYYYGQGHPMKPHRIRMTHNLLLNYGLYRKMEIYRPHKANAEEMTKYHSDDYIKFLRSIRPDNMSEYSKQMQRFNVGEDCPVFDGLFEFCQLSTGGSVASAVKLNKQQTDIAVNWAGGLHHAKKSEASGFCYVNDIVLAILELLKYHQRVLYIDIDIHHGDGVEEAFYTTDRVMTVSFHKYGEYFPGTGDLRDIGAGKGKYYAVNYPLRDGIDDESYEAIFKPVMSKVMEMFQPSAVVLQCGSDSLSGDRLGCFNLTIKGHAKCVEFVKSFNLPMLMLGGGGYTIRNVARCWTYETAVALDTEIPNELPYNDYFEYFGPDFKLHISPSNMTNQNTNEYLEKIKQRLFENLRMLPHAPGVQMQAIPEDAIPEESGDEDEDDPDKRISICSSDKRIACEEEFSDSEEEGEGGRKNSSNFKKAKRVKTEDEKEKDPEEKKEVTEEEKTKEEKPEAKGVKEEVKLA
- protocolSummary: Inhibition of HDAC1 in human DU-145 cells assessed as increase in histone H3 acetylation after 24 hrs by immunofluorescence microscopy

{"compound": "CC(C)(C)OC(=O)CC(O)/C=C/CCSSCC/C=C/C(O)CC(=O)OC(C)(C)C (configuration not stated)", "IC50 (µM)": 8.7}
{"compound": "C/C=C1\\NC(=O)[C@H]2CSSCC/C=C/[C@H](CC(=O)N[C@H](C(C)C)C(=O)N2)OC(=O)[C@H](C(C)C)NC1=O [ROMIDEPSIN]", "IC50 (µM)": 0.0014}

====

- protocolSummary: Elimination rate in Swiss Webster mouse liver at 40 mg/kg, ip by LC-MS/MS analysis
- Type: ADME, organism-based

{"compound": "CC(C)(C)OC(=O)CC(O)/C=C/CCSSCC/C=C/C(O)CC(=O)OC(C)(C)C (stereo unspecified)", "resultUnit": "s⁻¹", "k el": 0.000283}
